Source of measurements: patent US20210169980A1

Target: LC3A R70E
Sequence (chain, as listed by the source R70E R70E limits assumed): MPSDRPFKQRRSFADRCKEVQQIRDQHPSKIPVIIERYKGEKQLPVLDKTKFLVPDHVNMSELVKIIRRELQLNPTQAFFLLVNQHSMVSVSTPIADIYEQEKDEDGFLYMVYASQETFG
Assay: ITC
Metric Name: Kd
Just so you know, I need the unit written after the number.

Req: Kd for VEEEWVIVSDEEIEEARQKAPLEITEY [AnkB LIR (AnkB WT peptide, human 440 kD AnkB residues 1588-1614)] ?
Resp: 860 nM
